assay.overview: NCI Yeast Anticancer Drug Screen. Data for the rad50 strain (AID 155);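 note: 0% = growth of vehicle-only cultures of the same strain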
cond: S. cerevisiae rad50 strain growth inhibition; at 5.0 µM (retest, dose inferred, filed as 0.5); active compounds read high
Compounds without any hit were thinned out: in the full panel of roughly 79,000, 15% have a hit.
measure: growth inhibition (%)
Answers are plain numbers, in %.

| compound | quantity.unit | growth inhibition |
| --- | --- | --- |
| Cc1cc(C)c(O)c(Cc2cc(Cl)cc(Cc3cc(C)cc(C)c3O)c2O)c1 | % | 0 |
| O=C(Nc1ccc(Br)cc1)c1c(-c2ccccc2)c2ccc(O)cc2oc1=O | % | 0 |

For each entry beneath this line, provide reported growth inhibition.
1. COc1ccc(C(C)c2cc3c(cc2O)OCO3)cc1 (stereo not drawn)
2. Cc1ccc(CC2(C(=O)O)Cc3ccc(C)cc3C2)cc1 (stereo not drawn)

Found:
7
-1

For each entry beneath this line, provide reported growth inhibition.
1. C/C(=N\Oc1ncc([N+](=O)[O-])c(O/N=C(\C)c2ccccc2)n1)c1ccccc1
2. S=C1NC2=C(COC/C2=C\c2ccccc2Cl)C(c2ccccc2Cl)N1 (stereo not drawn)
3. CCCCCCCCCCC(C(=O)OCCCC)P(=O)(OCCCC)OCCCC (stereo not drawn)
4. C#CCNC1=CC(=O)CCC1
5. CCCCCCC(=O)CCCCCC/C=C\CC1OC(=O)C(N)(CO)C1O (stereo not drawn)
6. NNC(=S)Nc1ccccc1

Found:
52
94
11
-14
34
3

For each entry beneath this line, provide reported growth inhibition.
1. C[C@]12CC[C@@H]3c4cc(OCC(F)(F)F)c(O)cc4CC[C@H]3[C@@H]1CC[C@@H]2O
2. CN(Cc1ccccc1)CC(O)c1ccc(/C=C/c2ccc(Cl)cc2)cc1 (stereo not drawn)
3. COc1cccc(/C=N/N(C)C)c1O
4. c1cc2cc(Cc3ccc4[nH]ccc4c3)ccc2[nH]1

Found:
1: -3; 2: 55; 3: 0; 4: 21

For each entry beneath this line, provide reported growth inhibition.
1. CC(=O)OC1=C(Br)CCc2ccccc21
2. CCNC(=O)COc1ccc(Cl)cc1Cl
3. O=C1O/C(=C\c2ccccc2)c2ccccc21
4. CN(C)c1ccc(C(c2cc3c(cc2O)OCO3)N2CCCC2)cc1 (stereo not drawn)
5. Nc1cccc2c1C(=O)c1ccc(Cl)cc1C2=O
6. CCc1cccc(C(C)(C)C)c1NC(=S)/N=C/C(C(=O)c1ccccc1)=C(\O)c1ccccc1

Found:
13
-2
3
7
69
-4
